- Test system: Acinetobacter baumannii ABA19-1
- Type: cell-based
- Applied conditions: Acinetobacter baumannii ABA19-1
Bridge positions count the residues as written; N and C are the ends. Square brackets hold non-standard residues; d marks the D form. Peptide text beside a SMILES is read from it. * marks the point of attachment. X1 = CC[C@H](C)CCCCC(=O)*; Octanoyl = CCCCCCCC(=O)*; Dab = NCC[C@H](N)C(=O)O; Dap = NC[C@H](N)C(=O)O
Measured property: MIC (µg/mL)
Numbers only, in µg/mL.

Compound	Scale unit	MIC
CCCCCCCC(=O)N[C@@H](CCN)C(=O)N[C@H](C(=O)N[C@@H](CN)C(=O)N[C@H]1CCNC(=O)[C@H]([C@@H](C)O)NC(=O)[C@H](CCN)NC(=O)[C@H](CCN)NC(=O)[C@H](CC(C)C)NC(=O)[C@@H](Cc2ccccc2)NC(=O)[C@H](CCN)NC1=O)[C@@H](C)O [Compound 38] (Octanoyl-[Dab]T[Dap][Dab][Dab][dF]L[Dab][Dab]T; lactam 4-C)	µg/mL	0.03

The record that follows has no MIC shown yet.
(Q) Find the measured MIC of CC[C@H](C)CCCCC(=O)N[C@@H](CCN)C(=O)N[C@H](C(=O)N[C@H](CO)C(=O)N[C@H]1CCNC(=O)[C@H]([C@@H](C)O)NC(=O)[C@H](CCN)NC(=O)[C@H](CCN)NC(=O)[C@H]([C@@H](C)O)NC(=O)[C@@H](Cc2ccccc2)NC(=O)[C@H](CN)NC1=O)[C@@H](C)O [Compound 61] (X1-[Dab]T[dS][Dab][Dap][dF]T[Dab][Dab]T; lactam 4-C) and report it.
(A) 0.25
